Source of measurements: PubChem BioAssay (NCI)

# System: SF-295 CNS
# protocol notes: NCI tumour cell line growth inhibition, 48 h
measured property: log10 TGI (log10 of the value in µM)
Quick note: numbers are log10 of TGI, with µM as the unit.

Recorded log10 TGI, per entry:
- CCCCCCCC(=O)SCC/C=C/[C@@H]1CC(=O)NCc2nc(cs2)C2=N[C@@](C)(CS2)C(=O)N[C@@H](C(C)C)C(=O)N1: -0.40
- Clc1ccc2nc(CI)c(CI)nc2c1: 1.57
- CC(C)C(=O)c1c(C(F)(F)F)n([O-])c2cc(F)c(F)cc2[n+]1=O: 0.41
- O=c1oc2cc(OC/C(=N/O)c3ccc(F)cc3)ccc2c2ccccc12: 1.62
- O=C(Nc1ccc(F)cc1)Nc1ccc(Br)c(C(F)(F)F)c1: 0.75

Lab note: next compound to report on.
# input Entry under review: CC([C@H]1CC=C2C3CCC4=C[C@@H](N(C)C)CC[C@]4(C)C3CC[C@@]21C)N(C)C (some centres undefined) . Reported log10 TGI?
# output 0.64
